assay: Toxicity liver stage against HepG2, at 10uM; assay type: cell-based; set-up: test concentration 10 uM, cell line HepG2-A16-CD81EGFP; conditions: human, HepG2-A16-CD81EGFP cells; read-out: INHIBITION
readoutType: cytotoxicity at 10 µM (%)
Please respond with the number in % and leave the unit unwritten.

CCOc1cc(/C=C/c2ncc(C(=O)O)s2)cc(Br)c1OC :: 7.59
Cn1ccnc1CN1CC[C@@H](NS(C)(=O)=O)[C@@H]1Cc1ccccc1 :: -77.2
Cc1nccn1Cc1nnc(C2CCCN(c3ncccn3)C2)n1C (stereo unspecified) :: -3.09
CS(=O)(=O)c1cccc(OCC(=O)N2CCCC2c2ccccc2Cl)c1 (stereo unspecified) :: 4.36
O=C(c1cccnc1)N1C[C@@H]2OCCN(CCN3CCCC3)[C@@H]2C1 :: -71.2

### Prompt What does the data say about its cytotoxicity at 10 µM? Entry: `CN1CCN(CCCN(C)S(=O)(=O)C2CCCCC2)CC1`
### Response -9.46
